# measurement target: T1, recombinant human Factor VIIa (human), P08709
# T1 chain 1: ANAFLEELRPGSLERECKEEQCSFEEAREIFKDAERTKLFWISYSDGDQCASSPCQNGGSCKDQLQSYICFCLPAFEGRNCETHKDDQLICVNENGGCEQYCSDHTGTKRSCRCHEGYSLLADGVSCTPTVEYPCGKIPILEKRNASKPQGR
# T1 chain 2: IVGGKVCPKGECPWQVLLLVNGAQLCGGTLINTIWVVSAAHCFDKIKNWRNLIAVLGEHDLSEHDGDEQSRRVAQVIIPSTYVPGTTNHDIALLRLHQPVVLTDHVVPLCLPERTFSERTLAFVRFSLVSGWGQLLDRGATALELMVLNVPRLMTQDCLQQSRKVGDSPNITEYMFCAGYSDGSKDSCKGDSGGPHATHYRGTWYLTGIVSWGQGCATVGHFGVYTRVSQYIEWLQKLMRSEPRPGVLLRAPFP
# experiment summary: competition ELISA
# experimental setup: modification not given
pIC50: −log10 of the molar value.
Record satisfied whenever pIC50 is at 6 or higher; record not satisfied when lower.

Please review the entries below; each comes with its answer.
binder	group
CDDPRVDRWYCQFVEG [TF156]	not satisfied
VGALCDDPRVDRWYCQFVEG [TF74]	satisfied
ALCDDPRVDRWYCYFVEG [TF132]	satisfied
ALCDDPRVDRAYCQFVEG [TF114]	not satisfied
ALCDRPRVDRWYCQFVEG [TF95]	satisfied
ALCDDPRLDRWYCQFVEG [TF128]	satisfied

Textbook exercise: given the entry ALCDDPRVERWYCQFVEG [TF111] , state whether its pIC50 is greater than or equal to 6.
satisfied

Textbook exercise: given the entry ALCDDPRVDRWYC [TF180] , state whether its pIC50 is greater than or equal to 6.
not satisfied

Textbook exercise: given the entry AKCDDPRVDRWYCQFVEG [TF320] , state whether its pIC50 is greater than or equal to 6.
not satisfied

Textbook exercise: given the entry ALCDNPRVDRWYCQFVEG [TF106] , state whether its pIC50 is greater than or equal to 6.
satisfied

Textbook exercise: given the entry ALCDDPRVDAWYCQFVEG [TF112] , state whether its pIC50 is greater than or equal to 6.
satisfied

Textbook exercise: given the entry AACDDPRVDRWYCQFVEG [TF155] , state whether its pIC50 is greater than or equal to 6.
not satisfied

Textbook exercise: given the entry ALCDDPAVDRWYCQFVEG [TF109] , state whether its pIC50 is greater than or equal to 6.
satisfied
